Source listed as patent US10759816B2.

# System: genotype A, "Long" strain RSV
# test_summary: RSV-A in vitro cytoprotection assay in HEp-2 cells (ATPlite readout of cell viability)
# Format: cell-based, Human respiratory syncytial virus
# assay_context: human respiratory syncytial virus, HEp-2
measured_metric: EC50

## Task Which value of EC50 has been reported for O=C(Nc1ccccc1F)N[C@H]1N=C(c2ccccc2)c2ccccc2NC1=O [RSV-604, reference compound] in the records?
## Result ~2400 nM
